test system: Escherichia coli CFT073 (UPEC); assay: OD600 after 10 h growth (baseline-subtracted); higher = more bacterial growth (less inhibition); conditions: 64 µg/mL
Recorded OD600 after 10 h growth, one value per entry.
Answer as a number with no unit attached.

In the examples that follow, each entry is paired with its recorded OD600 after 10 h growth.
# Molecule, Experimental result
rows = [
    ("Cc1c(Cl)c(C)[n+]([O-])c(Cl)c1-c1noc(-c2cc(O)c(O)c([N+](=O)[O-])c2)n1 [Opicapone]", 0.796),
    ("COc1cc2c(cc1Cc1cccc(Cl)c1F)c(=O)c(C(=O)O)cn2[C@H](CO)C(C)C [Elvitegravir]", 0.766),
    ("CC(C)(C)c1ccc(C(=O)CCCN2CCC(OC(c3ccccc3)c3ccccc3)CC2)cc1 [Ebastine]", 0.755),
    ("CC(=O)N[C@H](Cc1ccc2ccccc2c1)C(=O)N[C@H](Cc1ccc(Cl)cc1)C(=O)N[C@H](Cc1cccnc1)C(=O)N[C@@H](CO)C(=O)N[C@@H](Cc1ccc(O)cc1)C(=O)N[C@H](CCCNC(N)=O)C(=O)N[C@@H](CC(C)C)C(=O)N[C@@H](CCCNC(=N)N)C(=O)N1CCC[C@H]1C(=O)N[C@H](C)C(N)=O [Cetrorelix]", 0.807),
    ("Cc1cn([C@H]2C[C@H](O)[C@@H](CO)O2)c(=O)[nH]c1=O [Thymidine]", 0.786),
]

Then there is this molecule:
What value of OD600 after 10 h growth has been recorded for this entry: CC1=C(C)C(=O)C(CCCCCCCCCC[P+](c2ccccc2)(c2ccccc2)c2ccccc2)=CC1=O [Visomitin]
0.0133

====

Recorded OD600 after 10 h growth, one value per entry.
system: Klebsiella pneumoniae MKP103; assay: OD600 after 10 h growth (baseline-subtracted); higher = more bacterial growth (less inhibition); conditions: 0.1 µg/mL
Answer as a number with no unit attached.

In the examples that follow, each entry is paired with its recorded OD600 after 10 h growth.
# Molecule, OD600 after 10 h growth
records = [
    ("CC(=O)N[C@H](Cc1ccc2ccccc2c1)C(=O)N[C@H](Cc1ccc(Cl)cc1)C(=O)N[C@H](Cc1cccnc1)C(=O)N[C@@H](CO)C(=O)N[C@@H](Cc1ccc(O)cc1)C(=O)N[C@H](CCCNC(N)=O)C(=O)N[C@@H](CC(C)C)C(=O)N[C@@H](CCCNC(=N)N)C(=O)N1CCC[C@H]1C(=O)N[C@H](C)C(N)=O [Cetrorelix]", 0.674),
    ("Cc1c(Cl)c(C)[n+]([O-])c(Cl)c1-c1noc(-c2cc(O)c(O)c([N+](=O)[O-])c2)n1 [Opicapone]", 0.664),
]

Write down the reported OD600 after 10 h growth of Cc1cn([C@H]2C[C@H](O)[C@@H](CO)O2)c(=O)[nH]c1=O [Thymidine] , test system: Klebsiella pneumoniae MKP103.
0.666

Next: COc1cc2c(cc1Cc1cccc(Cl)c1F)c(=O)c(C(=O)O)cn2[C@H](CO)C(C)C [Elvitegravir]
0.671

Next: CC1=C(C)C(=O)C(CCCCCCCCCC[P+](c2ccccc2)(c2ccccc2)c2ccccc2)=CC1=O [Visomitin]
0.672

Next: CC(C)(C)c1ccc(C(=O)CCCN2CCC(OC(c3ccccc3)c3ccccc3)CC2)cc1 [Ebastine]
0.667
